Values from patent US20230089867A1

# Assay target: UniProt Q8NBP7
# Method summary: PCSK9 ligand binding TR-FRET assay (interference with binding of human PCSK9 to human LDLR)
# Condition info: PCSK9 FRET assay, efficacy (Amax); 100% = 1 uM unlabeled human PCSK9, 0% = DMSO
# Method: The PCSK9 binding of the compounds of the disclosure were measured using a time resolved fluorescence resonance energy transfer (TR-FRET) assay. This time resolved fluorescence resonance energy transfer (TR-FRET) assay measures the ability of a compound of the present disclosure to interfere with the binding of human PCSK9 to human LDLR, providing measures of both potency (IC50) and efficacy (Amax). […] Data is expressed as percent inhibition: (value−0%)/(100%−0%).
Readout name: Max % inhibition (%)
Output spec: scalar in %, unitless text.

Below, 5 compounds whose answers are already recorded.
UniProt Q8NBP7 / Max % inhibition / COC[C@@H]1NC(=O)[C@H](C)N(Cc2ccc(Cl)cc2Oc2ccc(-c3cnc(CN4CCCC4)n3C)cc2)C(=O)C[C@@H](Cc2ccccc2)C(=O)N(C)[C@@H](CCCCN(C)C)CNC(=O)C[C@H](Cc2ccc(Cl)cc2)N(C)C1=O.Cl : value? 94.38

Same for COC[C@@H]1NC(=O)[C@H](C)N(Cc2c[nH]c(=O)cc2Oc2ccc(-c3cnc(CN(C)C)n3C)cc2)C(=O)C[C@@H](Cc2ccccc2)C(=O)N(C)[C@@H](C)CNC(=O)C[C@H](Cc2ccc(Cl)cc2)N(C)C1=O 85.66

// next record CCc1ccc(CN2C(=O)C[C@@H](Cc3ccccc3)C(=O)N(C)[C@H]3CCCC[C@@H]3NC(=O)C[C@H](Cc3ccc(Cl)cc3)N(C)C(=O)[C@H](COC)NC(=O)[C@@H]2C)c(Oc2ccc(-c3cnc([C@@H](C)N(C)C)n3C)cc2)c1 114.68

Now this one: C[C@H]1CNC(=O)C[C@H](Cc2ccc(Cl)cc2)N(C)C(=O)[C@H](CC(=O)O)NC(=O)[C@H](C)N(Cc2ccc(Cl)cc2Oc2ccc(-c3cnc(CN(C)C)n3C)cc2)C(=O)C[C@@H](Cc2ccccc2)C(=O)N1C 91.51

Request: C[C@H]1CNC(=O)C[C@H](Cc2ccc(Cl)cc2)N(C)C(=O)[C@H](COC(F)F)NC(=O)[C@H](C)N(Cc2ccc(Cl)cc2Oc2ccc(-c3cnc(CN(C)C)n3C)cc2)C(=O)C[C@@H](Cc2ccccc2)C(=O)N1C 102.49

Further cases:
Hi! What's the reported Max % inhibition for COC[C@@H]1NC(=O)[C@H](C)N(Cc2ccc(Cl)cc2Oc2ccc(-c3nnc4n3CCN(C(=O)[C@@H]3CCNC3)C4)cc2)C(=O)C[C@@H](Cc2ccccc2)C(=O)N(C)[C@@H](C)CNC(=O)C[C@H](Cc2ccc(Cl)cc2)N(C)C1=O on UniProt Q8NBP7? 94.48

Can you handle COC[C@@H]1NC(=O)[C@H](CCC(=O)N2CCOCC2)N(Cc2ccc(Cl)cc2Oc2ccc(-c3cnc(CN(C)C)n3C)cc2)C(=O)C[C@@H](Cc2ccccc2)C(=O)N(C)[C@@H](C)CNC(=O)C[C@H](Cc2ccc(Cl)cc2)N(C)C1=O next? 102.55

Item: CC[C@H]1C(=O)N[C@@H](COC)C(=O)N(C)[C@@H](Cc2ccc(Cl)cc2)CC(=O)NC[C@H](C)N(C)C(=O)[C@H](C)CC(=O)N1Cc1ccc(Cl)cc1Oc1ccc(-c2cnc(CN(C)C)n2C)cc1 84.80

---

Max % inhibition: recorded values
# Assay target: human PCSK9 (Homo sapiens, UniProt Q8NBP7)
# Sequence (Q8NBP7 153-692): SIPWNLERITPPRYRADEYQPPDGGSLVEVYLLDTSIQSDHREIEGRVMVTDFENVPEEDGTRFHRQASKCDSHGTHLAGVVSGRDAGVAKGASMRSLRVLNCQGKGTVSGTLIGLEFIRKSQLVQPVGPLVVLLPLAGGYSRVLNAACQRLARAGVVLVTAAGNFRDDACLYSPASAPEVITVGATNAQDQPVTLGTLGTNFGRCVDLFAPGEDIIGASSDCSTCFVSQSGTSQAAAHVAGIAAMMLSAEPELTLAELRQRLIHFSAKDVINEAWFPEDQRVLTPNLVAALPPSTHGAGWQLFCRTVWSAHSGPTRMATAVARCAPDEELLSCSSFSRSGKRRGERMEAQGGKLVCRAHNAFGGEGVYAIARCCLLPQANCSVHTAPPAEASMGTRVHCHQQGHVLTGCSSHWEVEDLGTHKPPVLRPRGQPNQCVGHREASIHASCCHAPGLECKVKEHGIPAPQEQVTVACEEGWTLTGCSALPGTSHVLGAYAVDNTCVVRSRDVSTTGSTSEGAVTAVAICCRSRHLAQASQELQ
# Sequence (Q8NBP7 31-152 partner limits assumed): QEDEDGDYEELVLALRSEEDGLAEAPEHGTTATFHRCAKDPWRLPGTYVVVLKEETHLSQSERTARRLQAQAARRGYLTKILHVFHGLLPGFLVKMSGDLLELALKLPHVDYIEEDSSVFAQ
# Method summary: PCSK9 ligand binding TR-FRET assay (interference with binding of human PCSK9 to human LDLR)
# Condition info: PCSK9 FRET assay, efficacy (Amax); 100% = 1 uM unlabeled human PCSK9, 0% = DMSO
I only need the number, in %, no unit after it.

Any idea what Max % inhibition was measured for CCC(O)c1ncc(-c2ccc(Oc3cc(Cl)ccc3CN3C(=O)C[C@@H](Cc4ccccc4)C(=O)N(C)[C@@H](C)CNC(=O)C[C@H](Cc4ccc(Cl)cc4)N(C)C(=O)[C@H](COC)NC(=O)[C@@H]3C)cc2)n1C (some centres unmarked) ? 64.23

Shifting focus to the compound that follows.
Using the record for COC[C@@H]1NC(=O)[C@H](C)N(Cc2ccc(F)cc2Oc2ccc(-c3cnc(CN(C)C)n3C)cc2)C(=O)C[C@@H](Cc2ccccc2)C(=O)N(C)[C@H]2CCCC[C@@H]2NC(=O)C[C@H](Cc2ccc(Cl)cc2)N(C)C1=O , report its Max % inhibition. 87.82

---

# Assay target: human PCSK9 (Homo sapiens, UniProt Q8NBP7)
# Method summary: PCSK9 ligand binding TR-FRET assay (interference with binding of human PCSK9 to human LDLR)
# Condition info: TR-FRET; human PCSK9 Alexa Fluor 647 / human LDLR extracellular domain-Europium Kryptate; read-out: PCSK9 FRET Assay IC50
Let's look at some molecules and their measured IC50.
Number in nM, nothing else.

For the molecule CC[C@H]1C(=O)N[C@@H](COC)C(=O)N(C)[C@@H](Cc2ccc(Cl)c(F)c2)CC(=O)NC[C@H](C)N(C)C(=O)[C@H](Cc2ccccc2)CC(=O)N1Cc1ccc(Cl)cc1Oc1ccc(-c2cnc(CN(C)C)n2C)cc1 [Compound 209] , what IC50 is on record? 4.9

Another molecule to look at: COC[C@@H]1NC(=O)[C@H](C)N(Cc2ccc(Cl)cc2Oc2ccc(-c3cnc(CN4CCCC4)n3C)cc2)C(=O)C[C@@H](Cc2ccccc2)C(=O)N(C)[C@@H](CCF)CNC(=O)C[C@H](Cc2ccc(Cl)cc2)N(C)C1=O [Compound 83] 1.7

# iterate: COC[C@@H]1NC(=O)[C@H](C)N(Cc2ccc(Cl)cc2Oc2ccc(-c3cnc4c(CN5CCCC5)cccn34)cc2)C(=O)C[C@@H](Cc2ccccc2)C(=O)N(C)[C@@H](C)CNC(=O)C[C@H](Cc2ccc(Cl)cc2)N(C)C1=O [Compound 302] 3.5

// switching to the query molecule
Returns the measured IC50 for the input molecule. Input: Cc1c(CN2CCCC2)ncn1-c1ccc(Oc2cc(Cl)ccc2CN2C(=O)C[C@@H](Cc3ccccc3)C(=O)N(C)[C@H]3CCCC[C@@H]3NC(=O)C[C@H](Cc3ccc(Cl)cc3)N(C)C(=O)[C@H](CO)NC(=O)[C@@H]2C)cc1 [Compound 260] 2.1

---

# Assay target: human PCSK9 (Homo sapiens)
# Method summary: PCSK9 ligand binding TR-FRET assay (interference with binding of human PCSK9 to human LDLR)
# Condition info: TR-FRET; human PCSK9 Alexa Fluor 647 / human LDLR extracellular domain-Europium Kryptate; read-out: PCSK9 FRET Assay IC50
Readout name: pIC50
Note: pIC50 values are expressed as the negative base-10 logarithm of concentration in M.

Previously resolved entries follow.
Any idea what pIC50 was measured for COC[C@@H]1NC(=O)[C@H](C)N(Cc2ccc(Cl)cc2Oc2ccc(-c3cnc(CN(C)C)n3C)cc2)C(=O)C[C@@H](CC2CC2)C(=O)N(C)[C@H]2CCCC[C@@H]2NC(=O)C[C@H](Cc2ccc(Cl)cc2)N(C)C1=O ? 8.44

Another molecule to check: COC[C@@H]1NC(=O)[C@@H](C)N(Cc2ccc(C(F)F)cc2Oc2ccc(-c3cnc(CN(C)C)n3C)cc2)C(=O)C[C@@H](Cc2ccccc2)C(=O)N(C)[C@@H](C)CNC(=O)C[C@H](Cc2ccc(Cl)cc2)N(C)C1=O 7.33

Now consider COC[C@@H]1NC(=O)[C@H](C)N(Cc2c(F)ccc(F)c2Oc2ccc(-c3cnc(CN(C)C)n3C)cc2)C(=O)C[C@@H](Cc2ccccc2)C(=O)N(C)[C@@H](C)CNC(=O)C[C@H](Cc2ccc(Cl)cc2)N(C)C1=O . 8.37

Would you mind doing CCc1ncc(-c2ccc(Oc3cc(Cl)ccc3CN3C(=O)C[C@@H](Cc4ccccc4)C(=O)N(C)[C@@H](C)CNC(=O)C[C@H](Cc4ccc(Cl)cc4)N(C)C(=O)[C@H](COC)NC(=O)[C@@H]3C)cc2)n1C as well? 7.99

Others:
Recorded pIC50 for C[C@H]1C(=O)N[C@@H](COC(F)F)C(=O)N(C)[C@@H](Cc2ccc(Cl)cc2)CC(=O)N[C@H]2CCCC[C@@H]2N(C)C(=O)[C@H](Cc2ccccc2)CC(=O)N1Cc1ccc(Cl)cc1Oc1ccc(-c2cnc(CN(C)C)n2C)cc1 , please? 8.74

Here is the next molecule: COC[C@@H]1NC(=O)[C@H](CO)N(Cc2ccc(Cl)cc2Oc2ccc(-c3cnc(CN(C)C)n3C)cc2)C(=O)C[C@@H](Cc2ccccc2)C(=O)N(C)[C@@H](C)CNC(=O)C[C@H](Cc2ccc(Cl)cc2)N(C)C1=O 8.59

Param item: CC[C@H]1C(=O)N[C@@H](CO)C(=O)N(C)[C@@H](Cc2ccc(Cl)cc2)CC(=O)NC[C@H](C)N(C)C(=O)[C@H](Cc2ccccc2)CC(=O)N1Cc1ccc(Cl)cc1Oc1ccc(-c2cnc(CN(C)C)n2C)cc1 8.66

Try the molecule COC[C@@H]1NC(=O)[C@H](C)N(Cc2ccc(Cl)cc2Oc2ccc(-c3cnc(CN(C)C)n3C)cc2)C(=O)C[C@@H](Cc2c(F)ccc(F)c2F)C(=O)N(C)[C@@H](C)CNC(=O)C[C@H](Cc2ccc(Cl)cc2)N(C)C1=O 8.37

And COC[C@@H]1NC(=O)[C@H](C)N(Cc2ccc(Cl)cc2Oc2ccc(-c3cnc(CN4CCCC4)n3C)cc2)C(=O)C[C@@H](Cc2ccccc2)C(=O)N(C)[C@@H](C)CNC(=O)C[C@H](Cc2ccc(Cl)cc2)N(C)C1=O ? 8.82
